B1: ADD1 (parent)
chain: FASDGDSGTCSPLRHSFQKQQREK

# Variants of: B1
# assay-text: protein stability index of a GFP-peptide fusion (GPS, HEK-293T) (PSI 1-6); higher = more stable;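 further: lentivirally expressed fusions sorted by FACS into six bins by GFP to DsRed ratio, PSI derived from sequencing read proportions per bin multiplied by bin number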
# measurement-context: c terminus: a fixed tail appended
observed-property: protein stability index
Numbers only.

# example entries with known answers
INSERT INTO measurements (mutant_designation, observed_property, number) VALUES
  ('D4T', 'protein stability index', 2.69),
  ('R22E', 'protein stability index', 4.23),
  ('S11M', 'protein stability index', 3.75);

Hello, I would appreciate it if you could give protein stability index for each entry below.
1. K24M
2. H15Q
3. D4Y
4. G8I
5. A2W
6. K24Y
7. Q20M
8. G5V

Result string:
[2.46, 3.44, 2.66, 3.15, 4.27, 2.83, 3.07, 3.94]

Here are 6 variants. What values of protein stability index were reported for them?
1. K19W
2. F17V
3. Q18R
4. Q21H
5. S11T
6. G5R

Result string:
1. 1.8
2. 3.71
3. 3.81
4. 3.4
5. 4.53
6. 3.35

For each of the items listed, what is its protein stability index?
1. D6S
2. S11G
3. A2I
4. F17Y
5. R22H

Result string:
[3.12, 4.35, 2.84, 3.79, 3.84]

Please give protein stability index for each item listed below.
1. K24D
2. K19T
3. K24T
4. G8N

Result string:
[3.83, 3.11, 3.88, 3.5]

Required: protein stability index, one value per variant below.
1. S16P
2. F1I
3. L13G
4. G5H

Result string:
2.28
5.29
4.22
3.43

Dear reader, for each entry below, please note its protein stability index.
1. S3I
2. P12Q
3. T9Y
4. L13F
5. A2M

Result string:
3.88
4.79
2.16
2.39
3.86

Provide the reported protein stability index of each entry below, same order.
1. K19S
2. Q21Y

Result string:
3.23
3.17

Your task in this section: give protein stability index for each listed record.
1. P12T
2. G5W
3. D4R
4. E23Y
5. A2K

Result string:
1: 4.59; 2: 1.56; 3: 2.81; 4: 3.25; 5: 4.66
